Field: kon. Provide a value for each of the binders that follow.
# assay-target: T1, recombinant purified human IL-12 p70 (human, UniProt P29459 23-219)
# T1 construct: Disulfide-linked heterodimer of p35 and p40; also called hIL-12; Hu IL-12
# T1 sequence 1: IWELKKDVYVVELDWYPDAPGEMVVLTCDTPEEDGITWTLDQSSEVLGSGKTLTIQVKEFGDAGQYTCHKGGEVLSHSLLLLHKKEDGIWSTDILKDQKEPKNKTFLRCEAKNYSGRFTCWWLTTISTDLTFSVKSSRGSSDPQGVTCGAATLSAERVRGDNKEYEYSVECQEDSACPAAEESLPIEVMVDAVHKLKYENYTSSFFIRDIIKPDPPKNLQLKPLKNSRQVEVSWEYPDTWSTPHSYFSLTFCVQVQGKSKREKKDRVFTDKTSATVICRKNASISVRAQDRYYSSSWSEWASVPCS
# T1 sequence 2: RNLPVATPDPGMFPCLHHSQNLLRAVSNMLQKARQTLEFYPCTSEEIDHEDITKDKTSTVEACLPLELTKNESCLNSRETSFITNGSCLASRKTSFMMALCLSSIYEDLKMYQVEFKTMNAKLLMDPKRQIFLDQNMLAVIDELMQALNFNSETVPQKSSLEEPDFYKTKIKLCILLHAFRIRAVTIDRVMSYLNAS
# test: SPR (BIAcore) as in Example 1.1.B, human IL-12p70
# Procedure: Approximately 5000 RU of goat anti-mouse IgG, (Fcγ), fragment specific polyclonal antibody (Pierce Biotechnology Inc, Rockford, Ill.) diluted in 10 mM sodium acetate (pH 4.5) was directly immobilized across a CM5 research grade biosensor chip using a standard amine coupling kit according to manufacturer's instructions and procedures at 25 μg/ml. […] The association and dissociation rate constants, kₒₙ (unit M⁻¹ s⁻¹) and koff (unit s⁻¹) were determined under a continuous flow rate of 25 μl/min. […]
One number for each entry, in M⁻¹ s⁻¹.

binder	kon / M⁻¹ s⁻¹
anti-IL-12p40 humanized antibody 1D4.8 (antibody, human IgG1, kappa, L234A L235A, V domains shown, Back-mutated CDR-grafted antibody; COS cells) VH: EVTLRESGPALVKPTQTLTLTCTFSGFSLRKSVMGVSWIRQPPGKALEWLAHIYWDDDKYYNPSLKSRLTISKDTSKNQVVLTMTNMDPVDTATYYCTRRGIRSAMDYWGQGTTVTVSS VL: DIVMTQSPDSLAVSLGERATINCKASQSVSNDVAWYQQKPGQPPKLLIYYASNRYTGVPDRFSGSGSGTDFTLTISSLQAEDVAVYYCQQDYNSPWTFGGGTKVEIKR	120000
anti-IL-12p40 humanized antibody 3G7.3 (antibody, human IgG1, kappa, L234A L235A, V domains shown, Back-mutated CDR-grafted antibody; COS cells) VH: EVQLVQSGAEVKKPGASVKVSCKATGYTFNDYWIEWVRQAPGQGLEWMGGFSHGSGSTNYNEKFKGRVTMTADSSTNTAYMELRSLRSDDTAVYYCARRRFRGMDYWGQGTTVTVSS VL: EIVMTQSPATLSVSPGERATLSCKASQSVSNDVAWYQQKPGQAPRLLIYYASNRYTGVPDRFSGSGSGTEFTLTISSLQSEDFAVYYCQQDYSSPWSFGGGTKVEIKR	780000

Alright, here's another binder for you.
In: Which kon value is on record for anti-IL-12p40 humanized antibody 8E1.3 (antibody, human IgG1, kappa, L234A L235A, V domains shown, Back-mutated CDR-grafted antibody; COS cells) VH: EVKLVESGGGLVQPGGSLRLSCAASGFTFSDYGMVWVRQAPGKGLEWVASISSGSSNIYYADTVKGRFTISRDDSKNTLYLQMNSLKTEDTAVYYCARNPYWGQGTTVTVSS VL: DIVMTQSPSSLSASVGDRVTITCKASQNVGTNVAWYQQKPEKAPKSLIYSASHRYSGVPSRFSGSGSGTDFTLTISSLQPEDFATYYCQQYNSYPLTFGGGTKVEIKR ?
Out: 1.3e+06

meta.source: patent US20140178332A1
